As shown below, each of these variants has a reported polymerase ribozyme fitness (log ratio) value.
B1: TPR t1 (parent)
chain: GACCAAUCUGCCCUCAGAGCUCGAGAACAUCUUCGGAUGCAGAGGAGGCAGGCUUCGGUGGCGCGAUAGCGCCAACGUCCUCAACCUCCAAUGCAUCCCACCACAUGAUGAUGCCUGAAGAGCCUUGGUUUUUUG

Variants of: B1
Assay: polymerase ribozyme fitness, log enrichment relative to wild type (log ratio); higher = more active; in vitro selection for triplet polymerase activity

// worked examples, polymerase ribozyme fitness (log ratio) included
{"mutation-annotation": "C28G G63A G93U C114A A118C", "outcome-measure": "polymerase ribozyme fitness (log ratio)", "value-observed": -7.47}
{"mutation-annotation": "A46U C56U", "outcome-measure": "polymerase ribozyme fitness (log ratio)", "value-observed": -0.82}
{"mutation-annotation": "A26U G47A", "outcome-measure": "polymerase ribozyme fitness (log ratio)", "value-observed": -4.24}
{"mutation-annotation": "A6C U9G G69U A83G A91C G117U", "outcome-measure": "polymerase ribozyme fitness (log ratio)", "value-observed": -0.828}

Here is another variant to look at.
For the variant C28U C82A C114U , report polymerase ribozyme fitness (log ratio). -3.98
